Origin of values: PubChem BioAssay AID1347131

assay: qHTS Assay for Foot and Mouth Disease Virus Antivirals: Primary Screen against the MLPCN compound library; conditions: FMDV antiviral cell-based qHTS; series mostly up to 57.9 µM; note: nearly all actives have a fitted effect of over 55% in size; note: potency is the fitted concentration of half-maximal effect
About 2,000 (0.49%) of roughly 410,000 compounds were called active. Inconclusive results (about 8%) are left out. The sample as a whole holds a higher share of actives than the screen did.
property label: Potency

Use these answered entries as a reference point.
molecule | Potency
COc1cc(/C=C2\SC(=O)N(c3cccc(Cl)c3)C2=O)cc([N+](=O)[O-])c1O | inactive
COC(=O)c1[nH]c2ccccc2c1NC(=O)CN1CCN(c2cccc(OC)c2)C(C)C1 (stereo unspecified) | 28.2 µM (active)
CCOC(=O)C1CCCN(S(=O)(=O)c2cc3c(cc2Cl)NC(=O)CO3)C1 (stereo unspecified) | inactive
COc1ccc(CN2C(=O)NC(=O)/C(=C/c3ccoc3)C2=O)cc1 | inactive
N#Cc1ccccc1Sc1ccccc1C(=O)OCC(=O)NC12CC3CC(CC(C3)C1)C2 | inactive

Now for a further molecule.
Could you share which Potency value was measured for CCOC(=O)/C(O)=C(\C#N)c1nc2ccccc2[nH]1 ? inactive

---

assay: qHTS Assay for Foot and Mouth Disease Virus Antivirals: Primary Screen against the MLPCN compound library; details: FMDV antiviral cell-based qHTS; series mostly up to 57.9 µM; note: nearly all actives have a fitted effect of over 55% in size
Among all 410,000 compounds or so, about 2,000 (0.49%) were called active. Not shown: some 8% with an inconclusive outcome. Calls come from the whole dose curve; tested in HEK293 reporter line. For the sample, actives were picked, then their nearest neighbours and some compounds at random.
Valid outcomes are listed here; reply with one: 1 for active, -1 for inactive

Illustrative cases are given below, each with its answer.
compound | cat
Cc1cccc(-n2nnnc2SCC(=O)NCC2CCCO2)c1 (configuration not stated) | -1
COc1ccc(C)cc1NC(=O)C1CCN(S(=O)(=O)c2ccccc2)CC1 | -1
O=C1/C(=C\c2ccccc2)C[C@@]2(O)[C@H]3Cc4ccc(O)c5c4[C@@]2(CCN3CC2CC2)[C@H]1O5 | 1
COc1ccc(-c2cc(C(F)(F)F)nc(N3CCN(C)CC3)n2)cc1OC | -1

Any idea what this test logged for COc1ccc2nc(C)cc(SCC(=O)N/N=C/c3c(OC)ccc4ccccc34)c2c1 ? -1

Any idea what this test logged for Cc1ccc2nc(NC(=O)CSc3nccn3Cc3ccc(F)cc3)sc2c1 ? -1

Any idea what this test logged for CNc1nc(-c2ccc3c(c2)CCN3S(=O)(=O)c2ccccc2)c(C)s1 ? -1

Any idea what this test logged for Cn1c(=O)[nH]c(=O)c2c1nc(NCc1ccccc1)n2CCCc1ccccc1 ? -1

Any idea what this test logged for Cc1ccc(-c2cc(-c3ccccc3)no2)c(O)c1 ? 1

Any idea what this test logged for CCOC(=O)CNC(=O)CSc1nnc(NC(=O)c2ccc(C)cc2)s1 ? 1

Any idea what this test logged for COc1ccc2nc(NC(=O)c3ccco3)sc2c1 ? 1

Any idea what this test logged for CCOC(=O)NC(=O)/C(C#N)=N/Nc1c(F)cccc1F ? -1

Any idea what this test logged for Cc1cc2nc(-c3ccc[nH]c3=O)[nH]c2cc1C ? 1

Any idea what this test logged for COc1ccc(CCNc2nc(-c3ccc(OC)c(OC)c3)cc(C(F)(F)F)n2)cc1OC ? -1

Any idea what this test logged for Cc1ccc(C)c(N2CCN(C(=O)c3ccc(N4CCCC4=O)cc3)CC2)c1 ? -1

Any idea what this test logged for Cc1nc(NC(=O)/C=C/c2ccc(C(C)(C)C)cc2)sc1C(=O)N(C)C ? -1

Any idea what this test logged for C=CCN1CC[C@]23c4c5ccc(O)c4O[C@H]2/C(=N/NC(=O)c2ccccc2)CC[C@@]3(O)[C@H]1C5 ? -1

Any idea what this test logged for COc1ccc(N(C)S(=O)(=O)c2cccc(C(=O)Nc3nc(C)c(C(C)=O)s3)c2)cc1 ? -1

Any idea what this test logged for Cc1ccc(/C=C/c2nc3ccccc3c(=O)n2CCc2ccccc2)cc1 ? -1

Any idea what this test logged for COc1ccc(CCNC(=S)N2CCC(C(=O)c3ccc(F)cc3)CC2)cc1OC ? -1

Any idea what this test logged for Cc1ccc2nc(NC(=O)c3ccco3)sc2c1 ? 1

Any idea what this test logged for Cc1cc(C)cc(NC(=O)c2ccc3c(c2)nnn3C2CCCC2)c1 ? -1

Any idea what this test logged for CC(C)CC(=O)Nc1nnc(SCC(=O)Nc2ccc(F)cc2)s1 ? -1

Any idea what this test logged for COc1ccc2[nH]cc(CCNc3ccnc(-c4c(C)noc4C)n3)c2c1 ? -1

Any idea what this test logged for CC(C)(C)c1ccc(C(=O)Nc2nnc(SCC(=O)NCC3CCCO3)s2)cc1 (configuration not stated) ? 1

Any idea what this test logged for Cn1c(SCC(=O)NCC2CCCO2)nnc1-c1c[nH]c2ccccc12 (configuration not stated) ? -1
